Values from patent US8962658B2

- Method description: in vitro
- Assay conditions: CD-1, mouse, microsomes, pH 7.4
Assay endpoint: microsomal CLint at 1 μM (µL/min/mg)
// return numeric value only (unit: µL/min/mg, not printed)

>>> print(df.to_string())
                                     smiles            assay_endpoint  numeric_result
0  CS(=O)(=O)c1ccc(-c2noc(C3CCN(C(=O)CCCC(F)(F)F)CC3)n2)cc1  microsomal CLint at 1 μM              14
1  O=C(CCCC(F)(F)F)N1CCC(c2nc(-c3ccccc3)no2)CC1  microsomal CLint at 1 μM              73

Moving on to another compound below.
-- ask Any idea what its microsomal CLint at 1 μM is? The compound is O=C(CCCC(F)(F)F)N1CC[C@@H](c2nc(-c3cccs3)no2)C1
-- reply 297
